# Experimental Target: GR (Homo sapiens, UniProt P04150)
# Assay Notes: GR Ligand Binding Assay (GR BIND), HeLa cell lysate, 3H-DEX
# Design: endogenous in cells; host or cells: HeLa (ATCC) cell lysate supernatant
# Experimental Setup: Table 4, literature compounds; read-out: GR BIND
Endpoint Label: pKi
The scale used: pKi is minus the common logarithm of the concentration in molar units.

Known results for compounds:
Challenge: Can you share its pKi? I mean this compound: C[C@]12Cc3cnn(-c4ccc(F)cc4)c3C=C1CCC[C@@H]2[C@@H](O)Cc1ccccc1 [Ex. 22 WO 03/086294 A2, reference compound]
Response given: 8.90

Challenge: Check C[C@]12Cc3cnn(-c4ccc(F)cc4)c3C=C1CCC[C@@H]2[C@@H](O)c1ccccc1 [Ex. 35 WO 03/86294 A2, reference compound] too.
Response given: 8.93

Challenge: Would you mind doing C[C@]12Cc3cnn(-c4ccc(F)cc4)c3C=C1CC[C@@]2(O)C#Cc1ccccc1 [Ex. 1 WO 04/075840 A2, reference compound] as well?
Response given: 8.93

Continuing:
Challenge: Reported pKi, compound C[C@]12Cc3cnn(-c4ccc(F)cc4)c3C=C1CCC[C@@H]2[C@@H](O)CCc1ccccc1 [Ex. 30 WO 03/086294 A2, reference compound] : ____
Response given: 8.92

Challenge: Item: CO[C@@]1(CCc2ccccc2Cl)CCC2=Cc3c(cnn3-c3ccc(F)cc3)C[C@@]21C [Ex. 103 WO 04/075840 A2, reference compound]
Response given: 9.64

* * *

# Test system: female Sprague-Dawley rats, oxazolone (OX) contact dermatitis
# Assay Notes: In Vivo Inflammation Assay (oxazolone contact dermatitis model)
# Parameters: key: +: the glucose level increased compared to vehicle; −: the glucose level decreased compared to vehicle
# Experimental Setup: rat, glucose level compared to vehicle
Endpoint Label: Inflammation Assay Glucose Effect

Challenge: Give its Inflammation Assay Glucose Effect value. Item: C[C@]12Cc3cnn(-c4ccc(F)cc4)c3C=C1CC[C@@]2(O)CC(O)c1cc(Cl)ccn1 (single isomer, unassigned) [Example 8a]
Response given: +

Challenge: What about C[C@]12Cc3cnn(-c4ccc(F)cc4)c3C=C1CC[C@@]2(O)CC(O)c1ccccn1 (single isomer, unassigned) [Example 2a] ?
Response given: −

Challenge: And then Cc1cccnc1C(O)C[C@]1(O)CCC2=Cc3c(cnn3-c3ccc(F)cc3)C[C@@]21C (single isomer, unassigned) [Example 1b] , what is it?
Response given: +

Challenge: Now consider Cc1cccnc1C(O)C[C@]1(O)CCC2=Cc3c(cnn3-c3ccc(F)cc3)C[C@@]21C (single isomer, unassigned) [Example 1a] and answer again.
Response given: −

Challenge: Would you mind doing C[C@]12Cc3cnn(-c4ccc(F)cc4)c3C=C1CC[C@@]2(O)CC(O)c1cc(Cl)ccn1 (single isomer, unassigned) [Example 8b] as well?
Response given: +

Challenge: Moving on to Cc1ccnc(C(O)C[C@]2(O)CCC3=Cc4c(cnn4-c4ccc(F)cc4)C[C@@]32C)c1 (stereo partly drawn)
Response given: +

Challenge: Check C[C@]12Cc3cnn(-c4ccc(F)cc4)c3C=C1CC[C@@]2(O)CC(O)c1cc(C#N)ccn1 (stereo partly drawn) too.
Response given: +

Challenge: # repeat for C[C@]12Cc3cnn(-c4ccc(F)cc4)c3C=C1CC[C@@]2(O)CC(O)c1ccccn1 (single isomer, unassigned) [Example 2b]
Response given: −

The record that follows has no Inflammation Assay Glucose Effect shown yet.
Challenge: Give its Inflammation Assay Glucose Effect value. Item: COc1ccnc(C(O)C[C@]2(O)CCC3=Cc4c(cnn4-c4ccc(F)cc4)C[C@@]32C)c1 (stereo partly drawn)
Response given: +

* * *

Below, each entry is listed with its recorded Emax.
# Experimental Target: GR (Homo sapiens, UniProt P04150)
# Assay Notes: Trans-Activation Modulation of Glucocorticoid Receptor Assay (GRAMMER), MMTV-LUC reporter, A549 cells
# Type: cell-based
# Design: endogenous in cells
# Experimental Setup: A549, A549 cells; relative to 300 nM dexamethasone; read-out: Transactivation A549 Cells GRAMMER Emax
State the result as a value with its unit after it.

Here are 2 compounds together with their reported answers.
Challenge: Name the reported Emax value associated with the compound Cc1ccnc(C(O)C[C@]2(O)CCC3=Cc4c(cnn4-c4ccc(F)cc4)C[C@@]32C)c1 (stereo partly drawn) [Example 11]
Response given: 27.7%

Challenge: # iterate: C[C@]12Cc3cnn(-c4ccc(F)cc4)c3C=C1CC[C@@]2(O)CC(O)c1ncccc1F (stereo partly drawn) [Example 4]
Response given: 17.5%

Below: the item to evaluate.
Challenge: # get_value(readout='Emax', item= COc1ccnc(C(O)C[C@]2(O)CCC3=Cc4c(cnn4-c4ccc(F)cc4)C[C@@]32C)c1 (stereo partly drawn) [Example 3] )
Response given: 21.6%

* * *

# Experimental Target: GR (Homo sapiens)
# Assay Notes: Transrepression Assay (GITAR), TNFα-β-lactamase reporter, U937 cells
# Assay type: cell-based
# Set-up: U937 cells contain an endogenous glucocorticoid receptor (GR); endogenous in cells; host or cells: U937 cells stably transfected with the TNF-alpha promoter beta-lactamase reporter
# Experimental Setup: U937 cells; inflection point; read-out: Transrepression U937 Cells GITAR IP
Could you mark each record Yes if its EC50 falls strictly under 100 nM, and No if it equals or exceeds it?

Challenge: Given C[C@]12Cc3cnn(-c4ccc(F)cc4)c3C=C1CC[C@@]2(O)CC(O)c1cc(Cl)ccn1 (single isomer, unassigned) [Example 8b] , is recorded EC50 strictly lower than 100 nM?
Response given: Yes

New cases:
Challenge: Strictly below 100 nM: is that where EC50 of C[C@]12Cc3cnn(-c4ccc(F)cc4)c3C=C1CC[C@@]2(O)CC(O)c1cc(Br)ccn1 (single isomer, unassigned) [Example 10b] sits?
Response given: Yes

Challenge: Would you mind doing C[C@]12Cc3cnn(-c4ccc(F)cc4)c3C=C1CC[C@@]2(O)CC(O)c1ccccn1 (single isomer, unassigned) [Example 2b] as well?
Response given: No

Challenge: What about C[C@]12Cc3cnn(-c4ccc(F)cc4)c3C=C1CC[C@@]2(O)CC(O)c1cc(Cl)ccn1 (single isomer, unassigned) [Example 8a] ?
Response given: Yes

Challenge: Would you mind doing Cc1cccnc1C(O)C[C@]1(O)CCC2=Cc3c(cnn3-c3ccc(F)cc3)C[C@@]21C (single isomer, unassigned) [Example 1b] as well?
Response given: No

Challenge: Follow-up entry: Cc1ccnc(C(O)C[C@]2(O)CCC3=Cc4c(cnn4-c4ccc(F)cc4)C[C@@]32C)c1 (stereo partly drawn)
Response given: Yes

* * *

# Experimental Target: UniProtKB P04150
# Sequence (P04150 1-777): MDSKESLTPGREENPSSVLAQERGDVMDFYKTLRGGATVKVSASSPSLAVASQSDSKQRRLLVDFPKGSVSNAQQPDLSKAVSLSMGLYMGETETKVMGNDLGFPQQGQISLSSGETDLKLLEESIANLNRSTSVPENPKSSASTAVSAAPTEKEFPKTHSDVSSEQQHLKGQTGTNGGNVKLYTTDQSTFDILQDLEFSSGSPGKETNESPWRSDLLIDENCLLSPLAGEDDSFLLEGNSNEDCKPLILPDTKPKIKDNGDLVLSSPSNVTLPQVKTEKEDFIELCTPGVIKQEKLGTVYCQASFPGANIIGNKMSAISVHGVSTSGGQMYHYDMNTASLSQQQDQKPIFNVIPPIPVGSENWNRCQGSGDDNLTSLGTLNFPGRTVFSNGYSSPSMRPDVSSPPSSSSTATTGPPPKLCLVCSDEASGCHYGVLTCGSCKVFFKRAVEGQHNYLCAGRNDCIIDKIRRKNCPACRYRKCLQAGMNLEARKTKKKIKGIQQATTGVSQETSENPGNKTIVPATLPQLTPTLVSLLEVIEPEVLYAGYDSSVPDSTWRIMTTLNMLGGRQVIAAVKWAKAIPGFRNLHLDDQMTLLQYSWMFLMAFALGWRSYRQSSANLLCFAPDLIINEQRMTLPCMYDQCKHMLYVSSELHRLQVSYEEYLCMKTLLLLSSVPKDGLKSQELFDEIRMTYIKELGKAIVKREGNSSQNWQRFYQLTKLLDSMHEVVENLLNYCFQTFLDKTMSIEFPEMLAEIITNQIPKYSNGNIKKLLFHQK
# Assay Notes: Transrepression Assay (GITAR), TNFα-β-lactamase reporter, U937 cells
# Assay type: cell-based
# Set-up: U937 cells contain an endogenous glucocorticoid receptor (GR); endogenous in cells; host or cells: U937 cells stably transfected with the TNF-alpha promoter beta-lactamase reporter
# Experimental Setup: U-937, U937 cells; activity repressed by 100 nM dexamethasone set as 100%; read-out: Transrepression U937 Cells GITAR Emax
Endpoint Label: Emax (%)
Field: numeric (%). Do not append units.

Would you please look over these solved cases?
Challenge: Identify the measured Emax of C[C@]12Cc3cnn(-c4ccc(F)cc4)c3C=C1CC[C@@]2(O)CC(O)c1cc(C(F)(F)F)ccn1 (single isomer, unassigned) for UniProtKB P04150.
Response given: 89.1

Challenge: Continue with C[C@]12Cc3cnn(-c4ccc(F)cc4)c3C=C1CC[C@@]2(O)CC(O)c1ccc(C(F)(F)F)cn1 (stereo partly shown)
Response given: 76.2

Challenge: // same read-out, input: C[C@]12Cc3cnn(-c4ccc(F)cc4)c3C=C1CC[C@@]2(O)CC(O)c1ccccn1 (single isomer, unassigned)
Response given: 63.5

Challenge: Lookup COc1ccnc(C(O)C[C@]2(O)CCC3=Cc4c(cnn4-c4ccc(F)cc4)C[C@@]32C)c1 (stereo partly shown)
Response given: 81.3

Challenge: And the next one, C[C@]12Cc3cnn(-c4ccc(F)cc4)c3C=C1CC[C@@]2(O)CC(O)c1cc(Cl)ccn1 (single isomer, unassigned) ?
Response given: 77.9

More entries:
Challenge: Lab note: need Emax for C[C@]12Cc3cnn(-c4ccc(F)cc4)c3C=C1CC[C@@]2(O)CC(O)c1cc(C#N)ccn1 (stereo partly shown) on UniProtKB P04150, anyone have it?
Response given: 74.9

Challenge: Same question, C[C@]12Cc3cnn(-c4ccc(F)cc4)c3C=C1CC[C@@]2(O)CC(O)c1ncccc1F (stereo partly shown) this time
Response given: 70.6

Challenge: Record: C[C@]12Cc3cnn(-c4ccc(F)cc4)c3C=C1CC[C@@]2(O)CC(O)c1ccc(F)cn1 (single isomer, unassigned)
Response given: 75.2

Challenge: Proceed to Cc1ccnc(C(O)C[C@]2(O)CCC3=Cc4c(cnn4-c4ccc(F)cc4)C[C@@]32C)c1 (stereo partly shown)
Response given: 69.1

Challenge: For Cc1cccnc1C(O)C[C@]1(O)CCC2=Cc3c(cnn3-c3ccc(F)cc3)C[C@@]21C (single isomer, unassigned) then?
Response given: 71.3
